target: recombinant rat MASP2 active protease (amino acids 296-685, C-terminal His Tag) (rat, UniProt Q9JJS8 296-685); experiment: cell-based or functional assay
Sequence (Q9JJS8 other isoform, or with tags, fused parts or gaps limits assumed): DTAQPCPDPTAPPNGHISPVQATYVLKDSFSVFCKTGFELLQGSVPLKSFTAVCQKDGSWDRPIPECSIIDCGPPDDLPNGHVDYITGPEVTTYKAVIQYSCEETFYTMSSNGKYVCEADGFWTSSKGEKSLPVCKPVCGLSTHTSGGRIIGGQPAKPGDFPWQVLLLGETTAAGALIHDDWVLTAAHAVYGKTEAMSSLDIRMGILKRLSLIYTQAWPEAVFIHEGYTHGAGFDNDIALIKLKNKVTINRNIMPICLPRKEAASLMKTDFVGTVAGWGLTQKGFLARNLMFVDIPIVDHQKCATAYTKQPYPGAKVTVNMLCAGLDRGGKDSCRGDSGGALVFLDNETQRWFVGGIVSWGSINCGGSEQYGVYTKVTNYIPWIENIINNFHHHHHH
Bridge positions count the residues as written; N and C are the ends. Square brackets hold non-standard residues; d marks the D form. Ends that are not written are not given here. Oic = O=C(O)[C@@H]1C[C@@H]2CCCC[C@@H]2N1; Pen = CC(C)(S)[C@H](N)C(=O)O; PEG3 = NCCOCCOCCOCCC(=O)O; Sar = CNCC(=O)O
READOUT TYPE: rat MASP2 IC50

{"columns": ["BINDER", "RESULT"],
 "data": [
  ["[Sar]ICSRSLP[Oic]I[Pen]IPD[PEG3]-OH (disulfide 3-11; N-terminus assumed; SMILES CC[C@H](C)[C@H](NC(=O)CNC)C(=O)N[C@H]1CSSC(C)(C)[C@@H](C(=O)N[C@H](C(=O)N2CCC[C@H]2C(=O)N[C@@H](CC(=O)O)C(=O)NCCOCCOCCOCCC(=O)O)[C@@H](C)CC)NC(=O)[C@H]([C@@H](C)CC)NC(=O)[C@@H]2C[C@@H]3CCCC[C@@H]3N2C(=O)[C@@H]2CCCN2C(=O)[C@H](CC(C)C)NC(=O)[C@H](CO)NC(=O)[C@H](CCCNC(=N)N)NC(=O)[C@H](CO)NC1=O) [Example 484: ((N-Me)G)-IC+SRSLP-(Oic)-I-(Pen)+IPD-(PEG2(13 atoms))-OH]", "88 nM"]
]}
